- Tested on: PC-3 (prostate cancer)
- protocol.description: MTT growth inhibition of human solid tumor cells, 72 h
- Format: cell-based
- stated.conditions: Homo sapiens; PC-3, 72 h; read-out: IC50
- Method: […] Obtaining 4000 well-growing human solid tumor cells and inoculating them into wells of a 96-well cell culture plate. […] Then the viable cell concentration is determined by the MTT method.
parameter: IC50 (µg/mL)

compound: Cc1c(CN(C)CCOC(=O)[C@@H](N)C(C)C)oc2c1C(=O)C(=O)c1c-2ccc2c(C)cccc12 [BS-TA-71]
IC50 (µg/mL): 0.92

a = CC(=O)OCCN(C)Cc1oc2c(c1C)C(=O)C(=O)c1c-2ccc2c(C)cccc12 [BS-TA-61]
b = Cc1c(CNCC2CC2)oc2c1C(=O)C(=O)c1c-2ccc2c(C)cccc12 [BS-TA-B07]
c = Cc1c(CN(C)CCOC(=O)CNC(=O)OC(C)(C)C)oc2c1C(=O)C(=O)c1c-2ccc2c(C)cccc12 [BS-TA-72]
Ascending by IC50, please: list the compounds accordingly. Rank them, then answer with their labels in that order.
c, a, b

All values here come from patent US9328083B2.
